tested system: PARK7 (Homo sapiens, UniProt Q99497)
Sequence (Q99497 whole entry): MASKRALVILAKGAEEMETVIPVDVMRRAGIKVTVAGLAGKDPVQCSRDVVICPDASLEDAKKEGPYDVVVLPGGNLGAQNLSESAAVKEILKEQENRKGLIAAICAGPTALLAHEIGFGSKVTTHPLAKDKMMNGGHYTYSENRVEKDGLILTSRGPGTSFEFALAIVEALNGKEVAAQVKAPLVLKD
protocol notes: High-throughput screen of the crude compound library, PARK7 fluorescence polarization (FP) assay with FP reagent JYQ-107
Assay type: biochemical
applied conditions: 1.25 µM, crude compound library; read-out: HTS FP assay %Inhibition (1.25 µM)
measured attribute: inhibition at 1.25 µM (%)

>>> value_observed("Cc1nnnn1-c1cc(C(=O)N2CCc3nc(NC(=O)[C@@H]4CCN(C#N)C4)sc3C2)cc(C(F)(F)F)c1")
86.5
>>> value_observed("N#CN1CC[C@@H](C(=O)Nc2nc3c(s2)CN(C(=O)c2sccc2-n2cccc2)CC3)C1")
85.3
>>> value_observed("N#CN1CC[C@@H](C(=O)Nc2nc3c(s2)CN(C(=O)C2(c4cccs4)CC2)CC3)C1")
81.9
>>> value_observed("CCn1nccc1-c1cc(C(=O)N2CCc3nc(NC(=O)[C@@H]4CCN(C#N)C4)sc3C2)no1")
81.3

Data origin, for the record: paper PMC11129182
